Biological target: PKA (Homo sapiens, UniProt P17612)
Construct: purchased Calbiochem
Test: In vitro kinase assay: peptide phosphorylation by PKA
Format: biochemical
Conditions: normalized to best substrate
MEASURED_ATTRIBUTE: PKA phosphorylation (%)
Respond with the bare value in %.

Below are worked cases with known answers.
>  <SUBSTANCE>
102 (AGSFKRNSIKKIV) [compound 102]

>  <MEASURED_ATTRIBUTE>
PKA phosphorylation

>  <UNIT_ABBREV>
%

>  <ASSAY_VALUE>
5

$$$$
>  <SUBSTANCE>
83 (RKIPKRPGSVHRTPSRQ) [compound 83]

>  <MEASURED_ATTRIBUTE>
PKA phosphorylation

>  <UNIT_ABBREV>
%

>  <ASSAY_VALUE>
2

$$$$

PKA phosphorylation reading for 107 (QKRHARVTVKYDRRE) [compound 107] : 2

PKA phosphorylation for 81 (KRERKTSSKSSVRKRR) [compound 81] is 2

The substance identified as 78 (KFARKSTRRSIRLPE) [compound 78] registered its PKA phosphorylation at 5

For this substance ( 94 (KLAVGRHSFSRRSGV) [compound 94] ), measured PKA phosphorylation is 5

# PKA phosphorylation (substance: 100 (WKGKRRSKARKKRK) [compound 100] ) is 2

The substance 95 (KKKFRTPSFLKKSKK) [compound 95] showed PKA phosphorylation equal to 2

###

Target: PKC-theta (Homo sapiens)
Construct: His-tag; made in house; host or cells: baculovirus-infected Sf9 cells
Sequence (Q04759 whole entry): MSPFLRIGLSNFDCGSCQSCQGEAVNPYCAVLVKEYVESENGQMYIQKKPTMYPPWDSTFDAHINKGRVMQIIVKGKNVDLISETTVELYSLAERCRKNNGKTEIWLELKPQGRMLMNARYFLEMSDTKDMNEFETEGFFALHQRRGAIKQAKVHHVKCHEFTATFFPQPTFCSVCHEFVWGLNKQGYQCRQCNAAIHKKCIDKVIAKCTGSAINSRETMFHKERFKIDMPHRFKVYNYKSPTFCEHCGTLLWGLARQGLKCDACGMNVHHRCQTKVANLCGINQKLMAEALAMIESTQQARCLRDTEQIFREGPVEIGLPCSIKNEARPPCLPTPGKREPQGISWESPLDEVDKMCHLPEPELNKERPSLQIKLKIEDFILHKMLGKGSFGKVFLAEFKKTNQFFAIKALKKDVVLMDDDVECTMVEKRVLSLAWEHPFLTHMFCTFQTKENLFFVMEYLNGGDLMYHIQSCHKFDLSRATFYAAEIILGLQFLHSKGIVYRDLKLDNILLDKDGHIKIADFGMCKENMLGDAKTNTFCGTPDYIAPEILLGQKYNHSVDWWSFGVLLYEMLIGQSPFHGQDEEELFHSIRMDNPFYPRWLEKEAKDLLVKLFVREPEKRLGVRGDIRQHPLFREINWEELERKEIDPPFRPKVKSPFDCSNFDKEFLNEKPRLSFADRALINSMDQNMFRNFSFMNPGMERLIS
Experiment: In vitro kinase assay: peptide phosphorylation by PKC-theta
Format: biochemical
Settings: peptide concentration 10 uM
# label = t if phosphorylation by PKC theta >= 20 else f

Consider the following illustrative entries.
>  <SUBSTANCE>
116 (EEGTFRSSIRRLSTRRR) [compound 116]

>  <CLASS_NAME>
t

$$$$
>  <SUBSTANCE>
134 (RSRSRSRSKSKDKRKSRKRS) [compound 134]

>  <CLASS_NAME>
f

$$$$
>  <SUBSTANCE>
140 (TELEGGFSRQRKRKLSFRRR) [compound 140]

>  <CLASS_NAME>
t

$$$$

Request: Decide: is the reported value of phosphorylation by PKC theta for 138 (EYLERRASRRRAV) [compound 138] equal to or greater than 20?
Response: t

Request: Is it the case that 139 (RPTPGDGEKRSRIKKSKKRK) [compound 139] has phosphorylation by PKC theta reaching or exceeding 20?
Response: f

Request: Is it the case that 145 (ISDFGLAKKLAVGRHSFSRR) [compound 145] has phosphorylation by PKC theta reaching or exceeding 20?
Response: t

Request: Given the entry 165 (TEEKSKKRKKKHRKNSRKHK) [compound 165] , answer whether its phosphorylation by PKC theta meets or surpasses 20.
Response: f

Request: Has 121 (LRRRSLRRSNSISKSPGP) [compound 121] a recorded phosphorylation by PKC theta greater than or equal to 20?
Response: t

###

The following substances are shown together with reported phosphorylation by PKC epsilon values.
Target: PKC-epsilon (Homo sapiens)
Construct: purchased Calbiochem
Sequence (Q02156 1-737): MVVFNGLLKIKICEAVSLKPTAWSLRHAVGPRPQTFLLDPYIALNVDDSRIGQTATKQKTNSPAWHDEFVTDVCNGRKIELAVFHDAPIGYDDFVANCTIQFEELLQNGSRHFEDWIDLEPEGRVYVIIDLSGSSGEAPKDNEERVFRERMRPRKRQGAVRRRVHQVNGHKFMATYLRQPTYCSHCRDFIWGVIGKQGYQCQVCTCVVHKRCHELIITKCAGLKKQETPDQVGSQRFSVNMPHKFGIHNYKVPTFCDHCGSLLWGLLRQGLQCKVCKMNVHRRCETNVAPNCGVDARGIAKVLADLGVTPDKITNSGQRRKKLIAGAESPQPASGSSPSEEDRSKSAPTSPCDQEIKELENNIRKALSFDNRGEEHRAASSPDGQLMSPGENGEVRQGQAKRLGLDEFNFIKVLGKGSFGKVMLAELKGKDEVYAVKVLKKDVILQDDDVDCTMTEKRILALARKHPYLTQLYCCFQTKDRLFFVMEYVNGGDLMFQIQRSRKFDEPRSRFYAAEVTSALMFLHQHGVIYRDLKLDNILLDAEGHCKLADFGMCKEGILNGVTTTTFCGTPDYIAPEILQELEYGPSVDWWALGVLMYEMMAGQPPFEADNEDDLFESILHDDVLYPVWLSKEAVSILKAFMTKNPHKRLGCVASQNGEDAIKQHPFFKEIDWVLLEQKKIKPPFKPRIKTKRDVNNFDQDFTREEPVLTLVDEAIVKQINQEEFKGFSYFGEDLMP
Test: In vitro kinase assay: peptide phosphorylation by PKC-epsilon
Format: biochemical
Conditions: peptide concentration 1 uM
Quick one: just the number, no unit, thanks!

Look over these answered cases.
>  <SUBSTANCE>
145 (ISDFGLAKKLAVGRHSFSRR) [compound 145]

>  <phosphorylation by PKC epsilon>
26

$$$$
>  <SUBSTANCE>
117 (NRKKKRTSFKRKA) [compound 117]

>  <phosphorylation by PKC epsilon>
67

$$$$
>  <SUBSTANCE>
136 (RARRDSLKKIEIW) [compound 136]

>  <phosphorylation by PKC epsilon>
33

$$$$
>  <SUBSTANCE>
148 (RELEQLKAEYLERRASRRRA) [compound 148]

>  <phosphorylation by PKC epsilon>
33

$$$$
>  <SUBSTANCE>
121 (LRRRSLRRSNSISKSPGP) [compound 121]

>  <phosphorylation by PKC epsilon>
49

$$$$
>  <SUBSTANCE>
155 (RWDKRRWRKIPKRPGSVHRT) [compound 155]

>  <phosphorylation by PKC epsilon>
26

$$$$

# phosphorylation by PKC epsilon (substance: 159 (LYARLARAYRRSQRASFKRA) [compound 159] ) is 25

Input 124 (PRLIRRGSKKRPAR) [compound 124] . Output phosphorylation by PKC epsilon: 49

GET /value?item= 122 (RAITSTLASSFKRRR) [compound 122] &field=phosphorylation by PKC epsilon returns 72
